Where do the numbers come from? From patent US20230159510A1.

tested on: HCT116 MTAP null cells; assay: HCT116 proliferation assay, MTAP null cells (CellTiter-Glo, 6 days); type: cell-based; conditions: HCT116-MTAP null, 144 h, read-out: Protif_ HCT116-MTAP null IC50
pIC50: −log10 of the molar value.
measurement.kind: pIC50

Use these answered entries as a reference point.
molecule | assay.result
Cc1cc2cc(C(=O)N(Cc3ccc(C(F)(F)F)cn3)[C@@H]3COC[C@H]3O)ccc2nc1N | 6.12
Cc1c(Br)c(N)nc2ncc(C(=O)N(Cc3ccc(C(F)(F)F)cn3)[C@H](C)c3ncccn3)cc12 | 7.27
Cc1cc(N)nc2ccc(C(=O)N(Cc3ccc(C(F)(F)F)cn3)[C@H](C)c3ncccn3)cc12 | 7.62
Cc1cc2cc(C(=O)N(Cc3ccc(C(F)(F)F)cn3)C3COc4c3ccc(C)c4C)ccc2nc1N (stereo not shown) | 6.27
Cc1cc2cc(C(=O)N(Cc3ccc(C(F)(F)F)cn3)Cc3ncccc3F)c(Cl)cc2nc1N | 6.65

P. Cc1cc2cc(C(=O)N(Cc3ccc(C(O)C(F)(F)F)cc3)Cc3ccc(C(F)(F)F)cn3)ccc2nc1N (stereo not shown)
Q. CC[C@H](c1ncccn1)N(Cc1ccc(C(F)(F)F)cn1)C(=O)c1cnc2nc(N)c(I)cc2c1 (single isomer, unassigned)
Exam item: Between these two entries, P and Q , state which has the higher pIC50. When you have decided, please share the label of that item.
Marked response: Q
(Q: 7.19, P: 6.10)

* * *

molecular target: PRMT5/MEP50 (Homo sapiens); assay: MTase-Glo methyl transferase assay, Method A (Histone H4 peptide, 1 µM MTA, 24 h pre-incubation); format: biochemical; design: made in house; conditions: read-out: PRMT5 MTase Glo Ki (nM, Meth. A)
Sequence (O14744 whole entry): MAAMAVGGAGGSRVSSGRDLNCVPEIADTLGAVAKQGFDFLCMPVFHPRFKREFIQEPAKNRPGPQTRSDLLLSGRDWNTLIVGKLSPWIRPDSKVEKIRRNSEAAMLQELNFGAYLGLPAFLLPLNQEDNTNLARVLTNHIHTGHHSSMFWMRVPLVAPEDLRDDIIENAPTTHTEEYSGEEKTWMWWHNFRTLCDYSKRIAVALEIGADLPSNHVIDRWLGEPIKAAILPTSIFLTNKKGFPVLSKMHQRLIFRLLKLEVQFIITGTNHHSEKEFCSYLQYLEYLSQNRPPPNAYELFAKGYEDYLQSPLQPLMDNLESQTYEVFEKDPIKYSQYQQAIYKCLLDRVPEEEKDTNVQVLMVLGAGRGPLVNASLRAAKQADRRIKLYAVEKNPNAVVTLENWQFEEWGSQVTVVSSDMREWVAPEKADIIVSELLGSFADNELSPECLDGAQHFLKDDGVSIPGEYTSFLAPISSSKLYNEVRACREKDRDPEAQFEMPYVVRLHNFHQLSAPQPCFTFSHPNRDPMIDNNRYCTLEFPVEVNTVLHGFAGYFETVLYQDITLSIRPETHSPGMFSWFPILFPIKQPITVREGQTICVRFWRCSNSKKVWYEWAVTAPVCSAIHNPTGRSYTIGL
Sequence (Q9BQA1 whole entry partner): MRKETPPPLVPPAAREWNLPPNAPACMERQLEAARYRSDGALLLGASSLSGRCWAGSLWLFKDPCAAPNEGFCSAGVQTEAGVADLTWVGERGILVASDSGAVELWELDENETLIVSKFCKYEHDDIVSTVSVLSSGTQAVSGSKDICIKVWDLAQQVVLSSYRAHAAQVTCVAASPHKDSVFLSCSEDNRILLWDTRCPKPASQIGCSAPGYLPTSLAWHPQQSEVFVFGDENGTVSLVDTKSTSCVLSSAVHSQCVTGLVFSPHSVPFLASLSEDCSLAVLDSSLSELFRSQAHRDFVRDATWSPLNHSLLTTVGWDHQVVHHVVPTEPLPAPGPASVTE
measurement.kind: Ki (nM)

Use these answered entries as a reference point.
compound | Ki, nM
CC[C@H](c1ncccn1)N(Cc1ccc(C(F)(F)F)cn1)C(=O)c1cc2cc(Br)c(N)nc2cn1 (single isomer, unassigned) | 0.18
C[C@H](c1ncccc1F)N(Cc1ccc(C#N)cn1)C(=O)c1ccc2nc(N)c(Cl)cc2c1 | 1.29

a. Cc1cc2cc(C(=O)N(Cc3ccc(OC(F)(F)F)cn3)[C@H](C)c3ncccn3)ccc2nc1N (single isomer, unassigned)
b. Cc1cc2cc(C(=O)N(Cc3ccc(C(F)(F)F)cn3)[C@@H]3CCCn4ncnc43)ccc2nc1N (single isomer, unassigned)
c. Cc1cc2cc(C(=O)N(Cc3ccc(C(F)(F)F)cn3)Cc3ncc(F)cc3F)ccc2nc1N
d. Cc1cc2cc(C(=O)N(Cc3ncccc3F)Cc3ncc(F)cc3F)ccc2nc1N
Exam item: List from greatest to least Ki. // format: requested-order list of labels
Marked response: d, b, a, c
(d: 1.67 nM, b: 0.1 nM, a: 0.04 nM, c: 0.01 nM)

P. Cc1cc2cc(C(=O)N(Cc3ccc(C(F)(F)F)cn3)[C@@H]3CCCC(F)(F)[C@@H]3O)ccc2nc1N (single isomer, unassigned)
Q. Cc1cc2cc(C(=O)N(Cc3ccc(Br)cn3)CC(C)C)ccc2nc1N
Exam item: Between these two entries, P and Q , state which has the higher Ki. When you have decided, please share the label of that item.
Marked response: Q

* * *

test system: HCT116 MTAP null cells; assay: HCT116 proliferation assay, MTAP null cells (CellTiter-Glo, 6 days); assay type: cell-based; conditions: HCT116-MTAP null, 144 h, read-out: Protif_ HCT116-MTAP null IC50
measurement.kind: IC50 (nM)

molecule | assay.result
CC[C@H](c1ncccn1)N(Cc1ccc(C(F)(F)F)cn1)C(=O)c1ccc2nc(N)c(C)cc2c1 (single isomer, unassigned) [Example 489] | 27

1. Nc1nc2ncc(C(=O)N(Cc3ccc(C(F)(F)F)cn3)[C@@H]3CCCc4nccnc43)cc2cc1Br (single isomer, unassigned) [Example 467]
2. COC[C@H](C1CC1)N(Cc1ccc(N2CCOCC2)nn1)C(=O)c1ccc2nc(N)c(Br)cc2c1 [Example 732]
3. Cc1cc2cc(C(=O)N(Cc3ccc(NCC(F)(F)F)nn3)[C@H](C)c3ncccn3)ccc2nc1N [Example 378]
4. Cc1cc2cc(C(=O)N(Cc3ccc(N4CCC(C(N)=O)CC4)cc3)Cc3scnc3C)ccc2nc1N [Example 572]
Exam item: List from greatest to least IC50. // format: requested-order list of labels
Marked response: 4, 3, 2, 1
